Entries and their MIC values follow.
# System: Mycolicibacterium smegmatis
# assayName: Antimicrobial activity against Mycobacterium smegmatis (MC2) 155 after 24 hrs by serial macrobroth dilution method
# Type: functional
# settings: (MC2) 155, 24 h
Just the number in µg/mL, nothing appended.

{"smilesRepr": "FC(F)(F)c1ccc2c(c1)N(CCC[P+](c1ccccc1)(c1ccccc1)c1ccccc1)c1ccccc1S2.[Cl-]", "MIC (µg/mL)": 12}

Input `[Cl-].c1ccc([P+](CCCN2c3ccccc3Sc3ccccc32)(c2ccccc2)c2ccccc2)cc1` . Output MIC: 4

###

# Tested on: Mycolicibacterium smegmatis
# assayName: Antimicrobial activity against Mycobacterium smegmatis (MC2) 155 after 24 hrs by serial macrobroth dilution method
# Type: functional
# settings: (MC2) 155, 24 h
Entries and their MIC values follow.
Just the number in µg/mL, nothing appended.

{"smilesRepr": "Clc1ccc2c(c1)N(CCC[P+](c1ccccc1)(c1ccccc1)c1ccccc1)c1ccccc1S2.[Cl-]", "unitOfMeasurement": "µg/mL", "MIC": 6}

Input `CN1CCN(CCCN2c3ccccc3Sc3ccc(C(F)(F)F)cc32)CC1` . Output MIC: 64

###

# Test system: Mycolicibacterium smegmatis
# assayName: Antimicrobial activity against Mycobacterium smegmatis (MC2) 155 after 24 hrs by serial macrobroth dilution method
# Type: functional
# settings: (MC2) 155, 24 h
Entries and their MIC values follow.

Below are worked cases with known answers.
{"smilesRepr": "c1ccc2c(c1)Nc1ccccc1S2", "MIC": "> 64 µg/mL"}
{"smilesRepr": "CCC[P+](c1ccccc1)(c1ccccc1)c1ccccc1.[Br-]", "MIC": "> 128 µg/mL"}

Input `CN(C)CCCN1c2ccccc2Sc2ccccc21` . Output MIC: > 128 µg/mL
